- Species: Rattus norvegicus
- Method Notes: Percent inhibition of analgesic activity in a rat model 4% NaCl-induced abdominal constriction assay at 30 min
- Type: functional, Abdomen
Endpoint Label: Inhibition (%)
Answer with a number only, understood to be in %.

Request: Return reported Inhibition; argument: "COc1ccc(-c2cc(-c3ccccc3)c(-c3ccc(S(C)(=O)=O)cc3)c(=O)o2)cc1"
Response: 37.5

Request: Can you share its Inhibition? I mean this molecule: "COc1ccc(-c2cc(-c3ccc(S(C)(=O)=O)cc3)c(-c3ccncc3)c(=O)o2)cc1"
Response: 58.3

Request: What value of measured Inhibition is listed for "CCOc1ccc(-c2cc(-c3ccccc3)c(-c3ccc(S(C)(=O)=O)cc3)c(=O)o2)cc1" ?
Response: 58.3

Request: GET /values?readout=Inhibition&item= "COc1ccc(-c2cc(-c3ccccc3)c(-c3ccc(N=[N+]=[N-])cc3)c(=O)o2)cc1"
Response: 47.2

Request: I would be grateful if you could share the reported Inhibition for "CSc1ccc(-c2cc(-c3ccccc3)c(-c3ccc(S(C)(=O)=O)cc3)c(=O)o2)cc1" .
Response: 72

Request: Would you kindly share the measured Inhibition for Cc1ccc(-c2cc(C(F)(F)F)nn2-c2ccc(S(N)(=O)=O)cc2)cc1 [CELECOXIB] ?
Response: 69.33

---

Field: pIC50. Provide a value for each of the compounds that follow.
- Measurement Target: Prostaglandin G/H synthase 1 (Ovis aries)
- Sequence (P05979 whole entry): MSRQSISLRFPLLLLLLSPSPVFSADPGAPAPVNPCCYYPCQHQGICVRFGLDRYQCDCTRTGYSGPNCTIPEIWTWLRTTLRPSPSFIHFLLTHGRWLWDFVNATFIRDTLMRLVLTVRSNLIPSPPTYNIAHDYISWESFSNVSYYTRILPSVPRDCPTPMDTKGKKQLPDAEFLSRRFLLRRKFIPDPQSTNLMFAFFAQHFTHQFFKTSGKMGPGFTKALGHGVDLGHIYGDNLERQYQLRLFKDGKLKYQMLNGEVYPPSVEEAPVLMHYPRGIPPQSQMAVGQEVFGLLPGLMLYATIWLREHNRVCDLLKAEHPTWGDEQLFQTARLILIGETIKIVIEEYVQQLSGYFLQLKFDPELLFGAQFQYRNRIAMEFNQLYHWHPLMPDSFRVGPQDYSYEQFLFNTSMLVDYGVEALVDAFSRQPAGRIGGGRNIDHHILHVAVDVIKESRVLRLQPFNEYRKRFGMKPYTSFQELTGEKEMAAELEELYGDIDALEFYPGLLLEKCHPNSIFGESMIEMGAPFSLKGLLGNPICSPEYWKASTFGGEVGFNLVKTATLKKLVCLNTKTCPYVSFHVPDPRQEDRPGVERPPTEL
- Method Notes: Inhibition of ovine Prostaglandin G/H synthase 1
FYI, pIC50 means -log10 of a concentration in mol per litre.

Request: Using the record for "CSc1ccc(-c2cc(-c3ccccc3)c(-c3ccc(S(C)(=O)=O)cc3)c(=O)o2)cc1" , report its pIC50.
Response: 4.42

Request: Need pIC50, item "CCOc1ccc(-c2cc(-c3ccc(S(C)(=O)=O)cc3)c(-c3ccccc3)c(=O)o2)cc1"
Response: 4.50

Request: Recorded pIC50 for "CCOc1ccc(-c2cc(-c3ccc(S(C)(=O)=O)cc3)c(-c3ccc(F)cc3)c(=O)o2)cc1" , please?
Response: 5.97

Request: Bench note: what pIC50 did "COc1ccc(-c2cc(-c3ccc(F)cc3)c(-c3ccc(S(C)(=O)=O)cc3)c(=O)o2)cc1" show?
Response: 4.70

---

Please respond with reported ID50 for every item in the list.
Express the result in mg/kg but write the number alone.

Request: Notebook: pull reported ID50 for Prostaglandin G/H synthase 2 (Rattus norvegicus) (UniProt P35355), entry "CSc1ccc(-c2cc(-c3ccccc3)c(-c3ccc(S(C)(=O)=O)cc3)c(=O)o2)cc1"
Response: 7.9

Request: Give ID50 (Prostaglandin G/H synthase 2 (Rattus norvegicus) (UniProt P35355)) of the following compound: "COc1ccc(-c2cc(-c3ccc(S(C)(=O)=O)cc3)c(-c3ccncc3)c(=O)o2)cc1"
Response: 21.4

Request: Record "COc1ccc(-c2cc(-c3ccccc3)c(-c3ccc(N=[N+]=[N-])cc3)c(=O)o2)cc1" : what is its ID50 with Prostaglandin G/H synthase 2 (Rattus norvegicus) (UniProt P35355)?
Response: 5.6

Request: I'm curious: which ID50 was measured for "CCOc1ccc(-c2cc(-c3ccccc3)c(-c3ccc(S(C)(=O)=O)cc3)c(=O)o2)cc1" tested on Prostaglandin G/H synthase 2 (Rattus norvegicus) (UniProt P35355)?
Response: 5.6

Request: // lookup ID50 | system=Prostaglandin G/H synthase 2 (Rattus norvegicus) (UniProt P35355) | key= "COc1ccc(-c2cc(-c3ccccc3)c(-c3ccc(S(C)(=O)=O)cc3)c(=O)o2)cc1"
Response: 19.2
